Reference for the values: ChEMBL document CHEMBL4052588

Experiment: Intrinsic clearance in mouse liver microsomes
Assay type: ADME, microsome
Details: read-out: CLH
measureName: microsomal CLint (µL/min/mg)
Could you give me the number in µL/min/mg? Just the number is fine.

// query Consider the compound Cc1cc2cc(NS(=O)(=O)c3ccc(C#N)cc3)ccc2n(C)c1=O and give its measured microsomal CLint.
// result 14

====

Target: Bromodomain-containing protein 9 (Homo sapiens, UniProt Q9H8M2)
Sequence (Q9H8M2 whole entry): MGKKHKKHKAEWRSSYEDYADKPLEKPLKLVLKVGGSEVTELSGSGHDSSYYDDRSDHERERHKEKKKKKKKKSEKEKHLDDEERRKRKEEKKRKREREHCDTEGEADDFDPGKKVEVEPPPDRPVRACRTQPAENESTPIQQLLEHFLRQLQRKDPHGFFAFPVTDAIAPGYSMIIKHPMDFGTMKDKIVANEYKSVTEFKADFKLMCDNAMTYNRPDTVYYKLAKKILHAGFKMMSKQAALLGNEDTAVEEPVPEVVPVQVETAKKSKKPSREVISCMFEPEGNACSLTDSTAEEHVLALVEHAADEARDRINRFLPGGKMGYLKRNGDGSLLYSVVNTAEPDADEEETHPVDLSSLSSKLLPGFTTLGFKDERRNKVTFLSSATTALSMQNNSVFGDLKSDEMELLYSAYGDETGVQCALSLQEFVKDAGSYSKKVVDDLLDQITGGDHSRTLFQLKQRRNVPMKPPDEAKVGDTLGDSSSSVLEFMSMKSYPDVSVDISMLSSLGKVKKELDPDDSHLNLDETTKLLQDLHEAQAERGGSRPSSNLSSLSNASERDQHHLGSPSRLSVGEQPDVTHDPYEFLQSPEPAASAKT
Experiment: Inhibition of human BRD9 expressed in Escherichia coli BL21 after 1 hr by BROMOscan assay
# maps each entry to its IC50
Supply the numeric figure in nM, leaving out any unit text.

Some compounds with known IC50 results, for comparison:
{"structureString": "Cc1cc2cc(NS(=O)(=O)c3ccc(C#N)cc3)ccc2n(C)c1=O", "readoutNumber": 310}
{"structureString": "COc1cc2c(cc1NS(=O)(=O)c1ccc(C#N)cc1)c(C)cc(=O)n2C", "readoutNumber": 890}
{"structureString": "Cn1c(=O)ccc2cc(NS(=O)(=O)c3ccccc3)ccc21", "readoutNumber": 220}

// query Hi! What's the reported IC50 for Cn1c(=O)ccc2cc(NS(=O)(=O)c3ccc(C#N)c(Cl)c3)ccc21 on Bromodomain-containing protein 9 (Homo sapiens, UniProt Q9H8M2)?
// result 2500

// query Form field - read-out: IC50; system: Bromodomain-containing protein 9 (Homo sapiens, UniProt Q9H8M2); submitted item: COc1ccccc1C(=O)Nc1cc2cc(C)c(=O)n(C)c2cc1N1CCCC1
// result 420
